# reported Cellular binding assay [RFU]; entries follow
# MEASURED ON: T1, CD134 expressed on the cell surface of HT1080_OX40 cells (human, UniProt P43489 29-277)
# T1 construct: whole, on cells; species not restated for the HT1080 transfectant
# T1 sequence (looked up): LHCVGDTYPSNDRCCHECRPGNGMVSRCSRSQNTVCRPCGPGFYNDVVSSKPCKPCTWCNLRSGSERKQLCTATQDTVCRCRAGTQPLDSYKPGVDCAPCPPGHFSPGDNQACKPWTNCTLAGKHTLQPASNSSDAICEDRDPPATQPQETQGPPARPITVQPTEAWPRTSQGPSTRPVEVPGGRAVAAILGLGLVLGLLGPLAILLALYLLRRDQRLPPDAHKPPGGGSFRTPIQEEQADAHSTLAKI
# PROCEDURE DETAILS: HT1080_OX40 cells, imaging; further: test concentration or dose not given here
Expressed in RFU, but write only the number.

Solved entries (count: 4):
- P018.S.12.A.C04 (antibody, V domains shown, V regions on human Ig constant parts; also called AB134_64) VH: QSLEESGGRLVTPGGSLTLTCTVSGIDLSRWTMSWVRQAPGKGLEWIGLIYASDDTVYASWAKGRFTISKTSTTVDLKITSPTTEDTATYFCVRVYGSTSGYYDLWGQGTLVTVSS VL: DVVMTQTPASVSEPVGGTVTIKCQASQSISNWLAWYQQKPGQPPKLLIYYASTLASGVPSRFKGSGSGTQFTLTISDLESADAATYYCQNFGDGNSIGHAFGGGTEVVVK: 509
- P018.S.11.A.H04 (antibody, V domains shown, V regions on human Ig constant parts; also called AB134_47) VH: QEQLEESGGDLVKPGASLTLTCTASGLSFSGSYWICWVRQAPGKGLEWIGCITAGISGSTYYASWAKGRFTISKTSSTTVTLQMTSLTAADTATYFCARERTGGWGDFNLWGPGTLVTVSS VL: DVVMTQTPASVEAAVGGTVTIKCQASQSITTYLSWYQQKPGQPPKLLIYLASTLESGVPSRFKGSRSGTEYTLTISDLESADAATYYCQCTDGGINHWFWAFGGGTEVVVK: 382
- P018.S.12.A.A03 (antibody, V domains shown, V regions on human Ig constant parts; also called AB134_52) VH: LEQSAGGAEGGLVKPGGSLELCCKASGFSLNNNYWICWVRQAPGKGLEWIGCIYVGVVSLTYSASWVNGRFTLSKDIDQSTGCLQLNSLTAADTAMYYCARSLYSGYAGYGDGYYGMDLWGPGTLVTVSS VL: GVVMTQTPASVSDPVGGTVTIKCQASQSIGSDLAWYQQKPGQPPKLLIYAASNLASGVSSRFSGIRSGTEFTLTISDLESADAATYYCQCTDYVDSHDTFGGGTEVVVK: 493
- P018.S.12.A.F06 (antibody, V domains shown, V regions on human Ig constant parts; also called AB134_82) VH: QSLEESGGDLVKPGGTLTLTCKASGIDFNNYYVCWVRQAPGKGLEWVGCIYTGSGSTYYASWAKGRFTITRSSSTTVTLQMTSLTAADTATYFCARPEFYDTYGYAGYGYATPNYFNFWGPGTLVTVSS VL: AAVLTQTPSPVSAAVGGTVTIKCQASQSVYNNNLLSWYQQKPGQPPKLLMYDASNLASGVPDRFSGSGSGTQFTLTISDLESDDAATYYCLGGYDDDADYNAFGGGTEVVVA: 500

Kindly consider the entry below.
Query: Using the record for P018.S.04.A.F05 (antibody, V domains shown, V regions on human Ig constant parts; also called AB134_12) VH: QSVEESGGRLVTPGTPLTLTCTVSGIDLSSYTMGWVRQAPGKGLEYIGIIGTSGTTYYSSWAKGRFTISKTSTTVDLKITSPTTEDTATYFCARLGDDYGDFHFNLWGQGTLVTVSS VL: DLVMTQTPASVSEPVGGTVTIKCQASQNIGNYLAWYQQKPGQPPKLLIYAASNLASGVSSRFKGSGSGTEYTLTISDLESADAATYYCQCTYYDSTYFAFGGGTEVVVK , report its Cellular binding assay [RFU].
Reply: 368
